Below, each entry is listed with its recorded Bacterial numbers (CFU/ml).
test system: Bifidobacterium; assay: Stimulation of growth: enumeration of bifidobacterium in vitro in human faecal homogenate / WC broth; format: cell-based, Bifidobacterium spp; conditions: 1% test substance, incubated up to 24 hours
MEASUREMENT LABEL: Bacterial numbers (CFU/ml)

INSERT INTO results (compound, result_value) VALUES
  ('CCCCCCCCCCCCCCCCCC(=O)O[C@H]1CC[C@@]2(C)[C@@H](CC[C@@H]3[C@@H]2CC[C@]2(C)[C@@H]([C@H](C)CC[C@@H](CC)C(C)C)CC[C@@H]32)C1 [C8, β-Sitostanolstearate]', '3.2 × 10^6 CFU/ml'),
  ('CC[C@H](CC[C@@H](C)[C@H]1CC[C@H]2[C@@H]3CC[C@H]4C[C@@H](O)CC[C@]4(C)[C@H]3CC[C@]12C)C(C)C', '2.4 × 10^6 CFU/ml'),
  ('CCCCCCCCCCCCCCCC(=O)O[C@H]1CC[C@@]2(C)C(=CC[C@H]3[C@@H]4CC[C@H]([C@H](C)CC[C@@H](CC)C(C)C)[C@@]4(C)CC[C@@H]32)C1 [C7, β-Sitosterolpalmitate]', '2.7 × 10^6 CFU/ml'),
  ('CC[C@H](CC[C@@H](C)[C@H]1CC[C@H]2[C@@H]3CC=C4C[C@@H](O)CC[C@]4(C)[C@H]3CC[C@]12C)C(C)C', '3.3 × 10^6 CFU/ml');
